Hello, the source for this data is the supplement of paper PMC10567573, in case you need it.

B1: WDR41 (parent)
chain: WTMQAYERNFWDPSPQLDTQQEIK

- Variants of: B1
- Measurement protocol: protein stability index of a GFP-peptide fusion (GPS, HEK-293T) (PSI 1-6); higher = more stable;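 further: lentivirally expressed fusions sorted by FACS into six bins by GFP to DsRed ratio, PSI derived from sequencing read proportions per bin multiplied by bin number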
- Condition description: c terminus: a fixed tail appended
Catalogue of variants with associated protein stability index

PTMQAYERNFWDPSPQLDTQQEIK [W1P] :: 4.6

Next variant, please.
Fill in: protein stability index of WTMQAYERNFWIPSPQLDTQQEIK [D12I] is ___
2.15
